Listed below: growth values for each entry.
Test system: UACC-257 melanoma
Test: NCI-60 one-dose screen, 48 h (100 = growth as untreated, 0 = no growth, -100 = all killed)
Conditions: 10 µM unless noted
The panel holds about 83,000 compounds, 20% with a hit somewhere; the sample as a whole holds those more often.
Provide the reading as a plain figure in %.

Previously resolved entries follow.
compound	recorded.metric	obs.value
COc1cc(C)ccc1Oc1nc(Nc2ccc(N3CCOCC3)cc2)ncc1N=Cc1cc(C(F)(F)F)cc(C(F)(F)F)c1	growth	79.2
CC[C@]12C=CCN3CC[C@@]4(c5ccc(OC)cc5N(C)[C@H]4[C@@](O)(C(=O)OC)[C@@H]1OC(=O)CCC(=O)O[C@H]1CC[C@H]4[C@@H]5CC[C@H]6CC(=O)CC[C@]6(C)[C@H]5CC[C@]14C)[C@@H]32	growth	26.9
CCc1ccc(OCc2ccccc2C(=O)Nc2ccc3nc(C)cc(N)c3c2)cc1	growth	-79.7
Cn1c2c(c3ccc(-c4ccn[nH]4)cc3c1=O)C(=O)c1ccccc1-2	growth	103
O=C(/C(=C/c1ccc([N+](=O)[O-])cc1)SCc1ccccc1)c1ccc(Cl)cc1	growth	90.2
Nc1c(C(=O)Nc2ccccc2Cl)sc2nc3c(cc12)CN(Cc1ccccc1)CC3	growth	128

API: the following record is the query input.
Task: Look up and state reported growth for CC(=O)OCC1OC(OC2C(COC(C)=O)OC(OCCC[S-])C(OC(C)=O)C2OC(C)=O)C(OC(C)=O)C(OC(C)=O)C1OC(C)=O.[Au+].c1ccc(CN2[CH-]N(Cc3ccccc3)C(c3ccccc3)=C2c2ccccc2)cc1 (configuration not stated)
Output: 12.5
